What follows is a collection of pIC50 values obtained with OXA-23 (Acinetobacter baumannii).
Sequence (Q9L4P2 18-273): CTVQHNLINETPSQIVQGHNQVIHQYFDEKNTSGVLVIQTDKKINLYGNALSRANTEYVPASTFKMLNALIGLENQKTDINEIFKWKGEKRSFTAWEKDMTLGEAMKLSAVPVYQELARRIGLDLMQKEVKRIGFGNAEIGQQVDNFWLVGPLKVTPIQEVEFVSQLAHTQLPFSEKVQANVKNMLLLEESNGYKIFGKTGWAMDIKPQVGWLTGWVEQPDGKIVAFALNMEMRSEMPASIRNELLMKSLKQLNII
pIC50: −log10 of the molar value.
Assay Metric: pIC50

INSERT INTO assay_data (compound_smiles, assay_result) VALUES
  ('O=C(NNC(=O)[C@@H]1CC[C@@H]2CN1C(=O)N2OS(=O)(=O)O)[C@@H]1CCCNC1', '< 5.52'),
  ('NCCN[C@H]1CC[C@H](CC(=O)N[C@H]2Cc3cccc(C(=O)O)c3OB2O)CC1', '< 5.52'),
  ('CC1=C[C@@H]2CN(C(=O)N2OS(=O)(=O)O)[C@@H]1C(N)=O', 6.46);

----------
# System: carbapenem-resistant Acinetobacter baumannii (CRAB) clinical isolates
# Method Summary: Broth microdilution MIC, CRAB isolates
# Format: cell-based
# Cond: 2018 Global collection, CRAB (MEM MICs >4 µg/mL), N 363
Assay Metric: Number of isolates inhibited at MIC of 2 µg/mL

INSERT INTO measurements (compound, assay_result) VALUES
  ('CC(C)(O/N=C(\C(=O)N[C@@H]1C(=O)N2C(C(=O)[O-])=C(C[N+]3(CCNC(=O)c4ccc(O)c(O)c4Cl)CCCC3)CS[C@H]12)c1csc(N)n1)C(=O)O [Cefiderocol, cefiderocol]', 49),
  ('CN(C)[C@@H]1C(O)=C(C(N)=O)C(=O)[C@@]2(O)C(O)=C3C(=O)c4c(O)c(NC(=O)CN5CCCC5)cc(F)c4C[C@H]3C[C@@H]12 [Eravacycline, eravacycline]', 53),
  ('NCC[C@H](O)C(=O)N[C@@H]1C[C@H](N)[C@@H](O[C@H]2O[C@H](CN)[C@@H](O)[C@H](O)[C@H]2O)[C@H](O)[C@H]1O[C@H]1O[C@H](CO)[C@@H](O)[C@H](N)[C@H]1O [Amikacin, amikacin]', 25),
  ('CN(C)c1cc(NC(=O)CNC(C)(C)C)c(O)c2c1C[C@H]1C[C@H]3[C@H](N(C)C)C(O)=C(C(N)=O)C(=O)[C@@]3(O)C(O)=C1C2=O [Tigecycline, tigecycline]', 146);
